experiment: in vitro; conditions: human
METRIC NAME: EC90

Q: What EC90 value was documented for this compound, O=C(Nc1ccc2sc(-c3ccc(F)c(F)c3)nc2c1)N1CCC(F)C1 (racemic) ?
A: > 50 µM

---

METRIC NAME: melting point

Q: I'd like to know its melting point. The compound in question is O=C(Nc1ccc2sc(-c3ccc(F)c(F)c3)nc2c1)N1CCC(F)C1 (racemic)
A: 209 to 210 °C

Q: Looking for the measured melting point of O=C(Nc1ccc2sc(-c3ccc(F)c(F)c3)nc2c1)N1CCC(O)C1 (stereo not shown) , can you help?
A: 211 to 213 °C

Q: Given the entry `O=C(Nc1ccc2sc(-c3ccc(F)c(F)c3)nc2c1)N1CCCC1` , report its measured melting point.
A: 221 to 223 °C

Q: # input compound: `CN1CCN(C(=O)Nc2ccc3sc(-c4cccc(F)c4)nc3c2)CC1` ; wanted: its melting point
A: 224 to 226 °C

Q: Please give the measured melting point for this compound: `O=C(Nc1ccc2sc(-c3ccc(F)c(F)c3)nc2c1)N1CCCCC1`
A: 232 to 233 °C

Q: Need melting point, item `O=C(Nc1ccc2sc(-c3ccc(F)cc3)nc2c1)N1CCCCC1`
A: 227 to 229 °C

Q: Give the measured melting point of `O=C(Nc1ccc2sc(-c3ccccc3)nc2c1)N1CCCC1` .
A: 210 to 211 °C

Q: Record request: melting point value, item `O=C(Nc1ccc2sc(-c3cccc(F)c3)nc2c1)N1CCCC1`
A: 232 to 233 °C

Q: Given `O=C(Nc1ccc2sc(-c3ccccc3F)nc2c1)N1CCCCC1` , state its recorded melting point.
A: 213 to 215 °C

Q: Param item = `O=C(Nc1ccc2sc(-c3ccc(F)cc3F)nc2c1)N1CCCC1` ; retrieve measured melting point.
A: 223 to 224 °C

Q: Any idea what melting point was measured for `O=C(Nc1ccc2sc(-c3ccc(F)c(F)c3)nc2c1)N1CCC(F)(F)CC1` ?
A: 222 to 225 °C

Q: Dear colleague, I am looking for the recorded melting point of the following compound: `O=C(Nc1ccc2sc(-c3cccc(F)c3F)nc2c1)N1CCCC1`
A: 194 to 195 °C

Q: So what's the measured melting point for this one? `O=C(Nc1ccc2sc(-c3ccccc3F)nc2c1)N1CCCC1`
A: 207 to 208 °C

---

experiment: Metabolic stability in mouse liver microsomes; format: in vitro ADME; settings: male, CD-1, liver microsomes, pH 7.4; mouse microsomes; read-out: microsomal half-life
METRIC NAME: half-life at 3 μM

Q: Which half-life at 3 μM is listed for O=C(Nc1ccc2sc(-c3ccc(F)c(F)c3)nc2c1)N1CC[C@H](F)C1 [Compound 1] ?
A: > 1 h

---

Could you please report measured concentration at 1 h for the items listed next?
Assay: Distribution between mouse plasma and brain (brain penetration, ip)
Format: in vivo
Settings: mouse, brain, intraperitoneal, 5 mg/kg; Table 8; groups of 3 mice (compound 3: ± SEM of 6 mice); read-out: Average [compound] brain
Experimental: For distribution of compounds between mouse plasma and brain, mice (in groups of 3) were injected with test compounds (5 mg/kg ip) and sacrificed at the indicated times for collection of plasma and brain. Compound was dissolved in 0.4 mL of dosing solution (7% Tween 80, 3% ethanol, 5% DMSO, 0.9% saline) for ip injections. […] Compound recovery was determined by liquid chromatography/tandem mass spectrometry analysis relative to a standard compound amount. […]
// return numeric value only (unit: nM, not printed)

Q: Value lookup for concentration at 1 h; key = O=C(Nc1ccc2sc(-c3ccc(F)c(F)c3)nc2c1)N1CCCCC1 [Compound 12]
A: 1290

Q: Please give the measured concentration at 1 h for this molecule: O=C(Nc1ccc2sc(-c3ccc(F)c(F)c3)nc2c1)N1C[C@@H](F)[C@H](F)C1 [Compound 35]
A: 16200

Q: concentration at 1 h lookup needed for O=C(Nc1ccc2sc(-c3ccc(F)c(F)c3)nc2c1)N1CCC(C(F)(F)F)C1 (stereo not drawn) [Compound 10] , thanks.
A: 1970

Q: Reported concentration at 1 h, molecule CN(C)C1CCN(C(=O)Nc2ccc3sc(-c4ccc(F)c(F)c4)nc3c2)C1 (stereo not drawn) [Compound 11] : ____
A: 3000

Q: Quick one: concentration at 1 h for O=C(Nc1ccc2sc(-c3ccc(F)c(F)c3)nc2c1)N1CCC(F)(F)C1 [Compound 9] ?
A: 21700

Q: Recorded concentration at 1 h for O=C(Nc1ccc2sc(-c3ccc(F)c(F)c3)nc2c1)N1CCC(F)CC1 [Compound 13] , please?
A: 2530

Entry source: patent US10399966B2
